FYI, the data here is from patent US4261910A.

Each entry below carries its reported LD50 at 168 h.
experiment: Acute toxicity (LD50); design: species or system mice (ICR-JCL); conditions: mouse, in vivo, sc, mice, subcutaneous administration, Table 1; read-out: LD50 (Subcutaneous administration)
observable: LD50 at 168 h

compound: CCC(=O)Oc1ccc2c(c1)CC[C@@H]1[C@@H]2CC[C@]2(C)[C@@H](OC(=O)COC(=O)CCCc3ccc(N(CCCl)CCCl)cc3)CC[C@@H]12 [Sample No. 4]
observable: LD50 at 168 h
reported_measurement: > 2000 mg/kg
//
compound: O=C(O)CCCc1ccc(N(CCCl)CCCl)cc1 [Sample No. 1, reference compound]
observable: LD50 at 168 h
reported_measurement: 26 mg/kg
//
compound: C[C@]12CC[C@@H]3c4ccc(OC(=O)c5ccccc5)cc4CC[C@H]3[C@@H]1CC[C@@H]2OC(=O)COC(=O)CCCc1ccc(N(CCCl)CCCl)cc1 [Sample No. 2]
observable: LD50 at 168 h
reported_measurement: > 2000 mg/kg
//
compound: CC(=O)Oc1ccc2c(c1)CC[C@@H]1[C@@H]2CC[C@]2(C)[C@@H](OC(=O)COC(=O)CCCc3ccc(N(CCCl)CCCl)cc3)CC[C@@H]12 [Sample No. 3]
observable: LD50 at 168 h
reported_measurement: > 2000 mg/kg

* * *

Each entry below carries its reported LD50 at 168 h.
experiment: Acute toxicity (LD50); parameters: species or system mice (ICR-JCL); settings: mouse, in vivo, po, mice, oral administration, Table 1; read-out: LD50 (Oral administration)
observable: LD50 at 168 h

molecule: CC(=O)Oc1ccc2c(c1)CC[C@@H]1[C@@H]2CC[C@]2(C)[C@@H](OC(=O)COC(=O)CCCc3ccc(N(CCCl)CCCl)cc3)CC[C@@H]12 [Sample No. 3]
observable: LD50 at 168 h
reported_measurement: > 3000 mg/kg
//
molecule: C[C@]12CC[C@@H]3c4ccc(OC(=O)c5ccccc5)cc4CC[C@H]3[C@@H]1CC[C@@H]2OC(=O)COC(=O)CCCc1ccc(N(CCCl)CCCl)cc1 [Sample No. 2]
observable: LD50 at 168 h
reported_measurement: > 6000 mg/kg
//
molecule: O=C(O)CCCc1ccc(N(CCCl)CCCl)cc1 [Sample No. 1, reference compound]
observable: LD50 at 168 h
reported_measurement: 80 mg/kg
//
molecule: CCC(=O)Oc1ccc2c(c1)CC[C@@H]1[C@@H]2CC[C@]2(C)[C@@H](OC(=O)COC(=O)CCCc3ccc(N(CCCl)CCCl)cc3)CC[C@@H]12 [Sample No. 4]
observable: LD50 at 168 h
reported_measurement: > 3000 mg/kg

* * *

experiment: Acute toxicity (LD50); parameters: species or system mice (ICR-JCL); details: mouse, in vivo, po, mice, single dose in olive oil, p.o., 7 days; read-out: LD50
Each entry below carries its reported LD50 at 168 h.

molecule: C[C@]12CC[C@@H]3c4ccc(OC(=O)c5ccccc5)cc4CC[C@H]3[C@@H]1CC[C@@H]2OC(=O)COC(=O)CCCc1ccc(N(CCCl)CCCl)cc1
value_relation_sign: >
LD50 at 168 h, mg/kg: 6000

molecule: O=C(O)CCCc1ccc(N(CCCl)CCCl)cc1 [Sample No. 1, reference compound]
value_relation_sign: =
LD50 at 168 h, mg/kg: 80
